Biological target: T1, human CD137-His6 (Sino Biological #10041-H08H) (human, UniProt Q07011 24-186)
T1 construct: Bought; also called human CD137 protein; not shown: His6 tag
Assay: SPR Biacore, IgG
Attribute: Kd
metric: Kd

>>> observedmeasurement("AG10059 (antibody, human IgG4 S228P, kappa, V domains shown) VH: EVQLVESGGGLVQPGGSLRLSCAASGYSITSGHYWAWIRQAPGKGLEWVSSISGYGSTTYYADSVKGRFTISRDNSKNTLYLQLNSLRAEDTAVYYCARGGSDAVLGDWFAYWGQGTLVTVSS VL: DIQLTQSPSSLSASVGDRVTITCRASQGIGSFLAWYQQKPGKAPKLLIYDASNLETGVPSRFSGSGSGTDFTLTISSLQPEDFATYYCQQGYYLWTFGQGTKVEIKR")
"38 nM"
>>> observedmeasurement("AG10057 (antibody, human IgG4 S228P, kappa, V domains shown, also called IgG of Fab 5303) VH: EVQLVESGGGLVQPGGSLRLSCAASGFSLSTSGVAVGWIRQAPGKGLEWLALIDWADDKYYSPSLKSRLTISRDNSKNTLYLQLNSLRAEDTAVYYCAREGSDAVLGDWFAYWGQGTLVTVSS VL: DIQLTQSPSSLSASVGDRVTITCRASQDISTFLAWYQQKPGKAPKLLIYDASSLESGVPSRFSGSGSGTDFTLTISSLQPEDFATYYCQQAYSIWTFGQGTKVEIKR")
"7.9 nM"
>>> observedmeasurement("AG10063 (antibody, human IgG4 S228P, kappa, V domains shown, also called IgG of Fab 5413) VH: EVQLVESGGGLVQPGGSLRLSCAASGFSLSTGGVAVGWIRQAPGKGLEWLALIDWDGDKSYSTSLKSRLTISRDNSKNTLYLQLNSLRAEDTAVYYCAREGSTAVVGDWFDYWGQGTLVTVSS VL: DIQLTQSPSSLSASVGDRVTITCRASQGISRYLAWYQQKPGKAPKLLIYDASNRATGIPSRFSGSGSGTDFTLTISSLQPEDFATYYCQQGYSLWTFGQGTKVEIKR")
"0.99 nM"
